src = the Human Domainome abundance scans (Beltran et al. 2025)

B1: Nuclear receptor subfamily 4 group A member 2, residues 260 to 336; numbered along this chain, P43354 (parent)
chain: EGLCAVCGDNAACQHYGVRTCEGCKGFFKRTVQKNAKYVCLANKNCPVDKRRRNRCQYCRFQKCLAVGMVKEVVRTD

Variants of: B1
Protocol description: abundance fitness (aPCA) (normalised: wild type 0, dead -1); higher = more abundant; growth selection in yeast, the domain comes from the species named
Experimental parameters: Homo sapiens
Class Met: abundance fitness at least -0.3. Class Not met: abundance fitness below -0.3.

Problem: Could you verify whether the entry `R53G` shows abundance fitness of no less than -0.3?
Result: Met

Problem: Kindly determine if abundance fitness recorded for `A42R` is above or exactly -0.3.
Result: Met

Problem: For this variant, is measured abundance fitness -0.3 or higher? `V67H`
Result: Met

Problem: # check: abundance fitness of `C59E` is greater than or equal to -0.3
Result: Not met
